Experiment: Pharmacokinetics in mouse
Format: in vivo
Conditions: blood, PO dose at 10 mg/kg

Chemical Structure	bioavailability, %
C=CC(=O)Nc1cccc(CNc2nc(Nc3ccc(N4CCN(C)CC4)cc3OC)ncc2Cl)c1	23

* * *

Target: Ba/F3 JAK3 (Homo sapiens, UniProt P52333)
Construct: candidate: TEL (ETV6) N-terminal oligomerisation domain
Sequence (P52333 1-1124): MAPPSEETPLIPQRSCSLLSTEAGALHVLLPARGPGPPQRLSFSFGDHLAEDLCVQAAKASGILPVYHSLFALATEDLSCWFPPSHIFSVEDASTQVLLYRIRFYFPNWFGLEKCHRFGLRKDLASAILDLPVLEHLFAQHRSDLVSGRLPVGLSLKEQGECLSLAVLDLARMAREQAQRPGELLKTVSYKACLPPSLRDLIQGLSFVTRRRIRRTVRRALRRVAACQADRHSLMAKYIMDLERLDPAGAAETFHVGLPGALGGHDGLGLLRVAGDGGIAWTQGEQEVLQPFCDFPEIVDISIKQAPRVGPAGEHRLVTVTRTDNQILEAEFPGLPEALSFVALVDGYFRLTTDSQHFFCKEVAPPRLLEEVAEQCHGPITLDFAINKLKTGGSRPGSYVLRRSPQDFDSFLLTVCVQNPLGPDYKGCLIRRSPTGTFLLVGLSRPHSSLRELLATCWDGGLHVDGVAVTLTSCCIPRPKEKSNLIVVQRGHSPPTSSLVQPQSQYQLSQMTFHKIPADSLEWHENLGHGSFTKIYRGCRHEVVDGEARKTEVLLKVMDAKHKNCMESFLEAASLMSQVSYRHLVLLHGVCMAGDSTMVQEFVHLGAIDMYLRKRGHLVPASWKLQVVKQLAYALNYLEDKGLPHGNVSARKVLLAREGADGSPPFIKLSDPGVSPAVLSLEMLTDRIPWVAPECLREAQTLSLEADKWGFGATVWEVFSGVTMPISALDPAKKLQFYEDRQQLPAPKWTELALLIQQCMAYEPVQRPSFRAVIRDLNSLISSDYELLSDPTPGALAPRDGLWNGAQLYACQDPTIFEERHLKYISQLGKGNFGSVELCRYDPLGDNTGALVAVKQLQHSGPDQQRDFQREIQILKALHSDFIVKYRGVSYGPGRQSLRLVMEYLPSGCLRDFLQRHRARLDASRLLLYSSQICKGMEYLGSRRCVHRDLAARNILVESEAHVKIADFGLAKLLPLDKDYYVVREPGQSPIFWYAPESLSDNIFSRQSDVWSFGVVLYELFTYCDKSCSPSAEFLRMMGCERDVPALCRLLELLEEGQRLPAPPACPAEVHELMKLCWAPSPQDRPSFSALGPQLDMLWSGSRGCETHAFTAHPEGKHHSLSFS
Assay: CellTiter-Glo cell proliferation, Ba/F3 JAK3
Format: cell-based, murine
Conditions: 72 hours; read-out: Ba/F3 IC50 JAK3
Threshold check on GI50: strictly below 400 nM is Yes; on or above 400 nM is No.

Chemical Structure	Category Label
C=CC(=O)Nc1ccc(CNc2nc(Nc3ccc(N4CCN(C)CC4)c(F)c3)ncc2Cl)cc1	Yes
C=CC(=O)Nc1cccc(CNc2cc(Nc3ccc(N4CCN(C)CC4)cc3OC)ncn2)c1	Yes
C=CC(=O)Nc1ccc(CN2C(=O)NCc3cnc(Nc4ccc(N5CCN(C)CC5)cc4)nc32)cc1	No
C=CC(=O)Nc1ccc(CNc2nc(Nc3ccc(N4CCOCC4)c(F)c3)ncc2Cl)cc1	Yes
C=CC(=O)Nc1cccc(CN2CCc3cnc(Nc4cnn(C)c4)nc32)c1	No
C=CC(=O)Nc1cccc(CNc2nc(Nc3cc(F)c(C4CCOCC4)c(F)c3)ncc2Cl)c1	Yes
C=CC(=O)Nc1ccc(CNc2nc(Nc3ccc(N4CCN(C)CC4)cc3)ncc2Cl)cc1	Yes
C=CC(=O)Nc1ccc(CN2C(=O)N(C)Cc3cnc(Nc4ccc(N5CCN(C)CC5)cc4)nc32)cc1	No
